experimental system: aromatase (Homo sapiens, UniProt P11511)
Sequence (P11511 whole entry): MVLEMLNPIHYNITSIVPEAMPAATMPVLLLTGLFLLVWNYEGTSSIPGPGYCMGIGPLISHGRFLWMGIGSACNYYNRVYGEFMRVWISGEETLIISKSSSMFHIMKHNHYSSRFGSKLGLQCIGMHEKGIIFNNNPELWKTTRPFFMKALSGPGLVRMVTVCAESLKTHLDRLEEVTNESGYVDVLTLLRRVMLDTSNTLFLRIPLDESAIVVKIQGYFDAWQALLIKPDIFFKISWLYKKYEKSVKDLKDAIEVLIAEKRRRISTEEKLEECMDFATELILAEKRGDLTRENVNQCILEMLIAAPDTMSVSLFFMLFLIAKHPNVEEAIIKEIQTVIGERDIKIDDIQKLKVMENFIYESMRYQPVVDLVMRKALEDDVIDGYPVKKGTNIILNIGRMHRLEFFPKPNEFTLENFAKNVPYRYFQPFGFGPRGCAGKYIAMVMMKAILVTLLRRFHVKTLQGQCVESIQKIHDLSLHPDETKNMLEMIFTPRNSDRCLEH
endpoint label: IC50 (nM)
Give the value in nM but do not write nM after it.

Ask: Request the reported IC50 associated with CSCC[C@]12CCC(=O)C=C1[C@H](O)C[C@H]1[C@@H]3CCC(=O)[C@@]3(C)C[C@H]3O[C@]312 [Example 2]
Result: 180

Values were extracted from patent US5202314A.
